assay: Enzyme-coupled assay: transfer of acyl-moieties from MMal-CoA to the ACP; type: biochemical; details: substrate MMal-CoA, acceptor ACP from murine FAS
recorded.metric: Km (µM)

molecule="Mutant A08: engineered murine acyltransferase, mutation K285D (protein) NKRPLWFICSGMGTQWRGMGLSLMRLDSFRESILRSDEAVKPLGVKVSDLLLSTDERTFDDIVHAFVSLTAIQIALIDLLTSVGLKPDGIIGHSLGEVACGYADGCLSQREAVLAAYWRGQCIKDAHLPPGSMAAVGLSWEECKQRCPAGVVPACHNSEDTVTISGPQAAVNEFVEQLKQEGVFAKEVRTGGLAFHSYFMEGIAPTLLQALKKVIREPRPRSARWLSTSIPEAQWQSSLARTSSAEYNVNNLVSPVLFQEALWHIPEHAVVLEIAPHALLQAVLDRGVKSSCTIIPLMKRDHKDNLEFFLTNLGKVHLT" recorded_metric=Km units_symbol=µM result_value=0.11
molecule="Mutant A01: engineered murine acyltransferase, mutation T161A (protein) NKRPLWFICSGMGTQWRGMGLSLMRLDSFRESILRSDEAVKPLGVKVSDLLLSTDERTFDDIVHAFVSLTAIQIALIDLLTSVGLKPDGIIGHSLGEVACGYADGCLSQREAVLAAYWRGQCIKDAHLPPGSMAAVGLSWEECKQRCPAGVVPACHNSEDAVTISGPQAAVNEFVEQLKQEGVFAKEVRTGGLAFHSYFMEGIAPTLLQALKKVIREPRPRSARWLSTSIPEAQWQSSLARTSSAEYNVNNLVSPVLFQEALWHIPEHAVVLEIAPHALLQAVLKRGVKSSCTIIPLMKRDHKDNLEFFLTNLGKVHLT" recorded_metric=Km units_symbol=µM result_value=1.47
